Data provenance is patent US20260207623A1.

Test: Phase 1 pharmacokinetic study of a single oral dose of 20 mg E4 monohydrate in female subjects with normal hepatic function and mild, moderate or severe hepatic impairment (plasma, LC-MS/MS, non-compartmental analysis)
Assay type: in vivo, human
Conditions: female, human, plasma, po, 20 mg, Normal hepatic function; single oral dose 20 mg E4 monohydrate; plasma; read-out: T1/2, Median (converted)
endpoint_name: half-life (h)
A number alone suffices; assume h.

Look up half-life: C[C@]12CC[C@@H]3c4ccc(O)cc4CC[C@H]3[C@@H]1[C@@H](O)[C@@H](O)[C@@H]2O [E4]
22.7

###

Assay: Phase 1 pharmacokinetic study of a single oral dose of 20 mg E4 monohydrate in female subjects with normal hepatic function and mild, moderate or severe hepatic impairment (plasma, LC-MS/MS, non-compartmental analysis)
Format: in vivo, human
Details: female, human, plasma, po, 20 mg, Severe (Test); one-way ANOVA; single oral dose 20 mg; read-out: AUCinf, Geometric LS Mean
endpoint_name: AUC(0-inf) (ng·h/mL)
Use ng·h/mL as the unit, but write only the number.

Item `C[C@]12CC[C@@H]3c4ccc(O)cc4CC[C@H]3[C@@H]1[C@@H](O)[C@@H](O)[C@@H]2O` has what recorded AUC(0-inf)?
198
